# SYSTEM TESTED: Isoleucine--tRNA ligase (Escherichia coli (strain K12))
# Sequence (P00956 whole entry): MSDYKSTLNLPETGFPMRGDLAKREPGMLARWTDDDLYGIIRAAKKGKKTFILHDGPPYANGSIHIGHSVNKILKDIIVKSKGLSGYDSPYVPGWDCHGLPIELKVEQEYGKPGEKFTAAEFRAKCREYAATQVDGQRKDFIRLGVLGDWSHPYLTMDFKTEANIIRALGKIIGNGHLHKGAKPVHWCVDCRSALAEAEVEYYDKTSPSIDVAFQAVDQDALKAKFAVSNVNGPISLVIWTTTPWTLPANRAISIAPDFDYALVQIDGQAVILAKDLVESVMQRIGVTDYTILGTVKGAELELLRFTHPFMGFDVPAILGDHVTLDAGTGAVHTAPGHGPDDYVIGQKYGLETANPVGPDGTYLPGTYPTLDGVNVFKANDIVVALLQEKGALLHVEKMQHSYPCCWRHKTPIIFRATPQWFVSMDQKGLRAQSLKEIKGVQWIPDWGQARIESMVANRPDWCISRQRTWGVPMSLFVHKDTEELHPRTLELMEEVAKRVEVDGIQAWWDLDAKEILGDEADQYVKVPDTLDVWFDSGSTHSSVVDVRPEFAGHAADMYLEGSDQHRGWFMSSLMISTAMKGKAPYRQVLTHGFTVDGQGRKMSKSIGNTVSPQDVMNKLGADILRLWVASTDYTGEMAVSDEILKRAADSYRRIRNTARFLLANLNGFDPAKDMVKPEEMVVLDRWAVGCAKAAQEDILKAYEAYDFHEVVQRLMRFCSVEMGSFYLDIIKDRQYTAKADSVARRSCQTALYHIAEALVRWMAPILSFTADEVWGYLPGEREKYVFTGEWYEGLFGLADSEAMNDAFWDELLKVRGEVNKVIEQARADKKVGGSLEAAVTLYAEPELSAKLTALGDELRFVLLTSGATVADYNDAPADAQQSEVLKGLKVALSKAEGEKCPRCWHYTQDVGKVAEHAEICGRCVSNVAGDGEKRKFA
# EXPERIMENT NOTES: Competitive Ligand Binding Assay
# CONDITION CONTEXT: pH 7.5; 20 °C
Criterion met if Ki is below 5 mM. Criterion not met if not; exact matches included in Criterion not met.

Record excerpt, results attached:
compound="CCCCC[C@H](N)C(=O)O [(2S)-2-aminoheptanoic acid]" class="Criterion not met"
compound="CCC[C@H](C)C(N)C(=O)O (stereo partly drawn) [(3S)-2-amino-3-methylhexanoic acid]" class="Criterion met"
compound="CC(C)[C@@H](C)C(N)C(=O)O (stereo partly drawn) [(3R)-2-amino-3,4-dimethylpentanoic acid]" class="Criterion met"
compound="CC(C)CCC(N)C(=O)O (racemic) [2-amino-5-methylhexanoic acid]" class="Criterion met"
compound="CCCC[C@@H](C)C(N)C(=O)O (stereo partly drawn) [(3R)-2-amino-3-methylheptanoic acid]" class="Criterion not met"
compound="CCC(CC)[C@H](N)C(=O)O [(2S)-2-amino-3-ethylpentanoic acid]" class="Criterion met"
compound="CC(C)[C@H](N)CO [(2S)-2-amino-3-methylbutan-1-ol]" class="Criterion not met"
compound="CC(C)(C)CC(N)C(=O)O (racemic) [2-amino-4,4-dimethylpentanoic acid]" class="Criterion not met"

In plain terms, does "CC(C)[C@H](C)[C@H](N)C(=O)O" come in under 5 mM for Ki?
Criterion met

is_below(Ki, 5 mM) for CC[C@H](C)C[C@H](N)C(=O)O [(2S,4S)-2-amino-4-methylhexanoic acid] ?
Criterion met

The values you see were collected from BindingDB's records for doi:10.1111/j.1432-1033.1976.tb10435.x.
